target: Endothelin-1 receptor (Sus scrofa); assay: Inhibition of endothelin (ET-A) binding to porcine heart membranes; set-up: species or system Membrane
Sequence (Q29010 whole entry): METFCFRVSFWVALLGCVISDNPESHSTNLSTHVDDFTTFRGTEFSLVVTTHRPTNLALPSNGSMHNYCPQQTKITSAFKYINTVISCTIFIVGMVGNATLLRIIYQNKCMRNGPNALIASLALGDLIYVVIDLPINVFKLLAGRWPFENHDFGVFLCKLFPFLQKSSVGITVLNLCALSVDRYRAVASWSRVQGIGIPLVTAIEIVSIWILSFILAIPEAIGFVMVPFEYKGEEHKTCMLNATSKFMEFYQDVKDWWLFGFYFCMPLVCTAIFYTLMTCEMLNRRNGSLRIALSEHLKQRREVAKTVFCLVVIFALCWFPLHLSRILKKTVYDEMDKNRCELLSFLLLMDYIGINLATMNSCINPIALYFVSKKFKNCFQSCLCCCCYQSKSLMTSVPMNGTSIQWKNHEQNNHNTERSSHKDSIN
pIC50: −log10 of the molar value.
Catalogue of pIC50 values

- compound-structure-string: "CC[C@H](C)[C@H](NC(=O)CNC(=O)[C@H](CCC(N)=O)NC(=O)[C@H](CC(C)C)NC(=O)[C@H](NC(C)=O)C1c2ccccc2CCc2ccccc21)C(=O)N[C@@H](Cc1c[nH]c2ccccc12)C(=O)O"
  experimental-system: "Endothelin-1 receptor (Sus scrofa)"
  pIC50: 6.74
- compound-structure-string: "CC[C@H](C)[C@H](NC(=O)CNC(=O)[C@H](CC(N)=O)NC(=O)[C@H](CC(C)C)NC(=O)[C@H](NC(C)=O)C1c2ccccc2CCc2ccccc21)C(=O)N[C@@H](Cc1c[nH]c2ccccc12)C(=O)O"
  experimental-system: "Endothelin-1 receptor (Sus scrofa)"
  pIC50: 6.92
- compound-structure-string: "CC[C@H](C)[C@H](NC(=O)[C@@H](NC(=O)[C@H](CC(=O)O)NC(=O)[C@H](CC(C)C)NC(=O)[C@H](NC(C)=O)C1c2ccccc2CCc2ccccc21)C(C)C)C(=O)N[C@@H](Cc1c[nH]c2ccccc12)C(=O)O"
  experimental-system: "Endothelin-1 receptor (Sus scrofa)"
  pIC50: 8.30
- compound-structure-string: "CC[C@H](C)[C@H](NC(=O)[C@H](CCSC)NC(=O)[C@H](CC(=O)O)NC(=O)[C@H](CC(C)C)NC(=O)[C@H](NC(C)=O)C1c2ccccc2CCc2ccccc21)C(=O)N[C@@H](Cc1c[nH]c2ccccc12)C(=O)O"
  experimental-system: "Endothelin-1 receptor (Sus scrofa)"
  pIC50: 7.40
- compound-structure-string: "CC[C@H](C)[C@H](NC(=O)[C@H](CC(N)=O)NC(=O)[C@H](CC(=O)O)NC(=O)[C@H](CC(C)C)NC(=O)[C@H](NC(C)=O)C1c2ccccc2CCc2ccccc21)C(=O)N[C@@H](Cc1c[nH]c2ccccc12)C(=O)O"
  experimental-system: "Endothelin-1 receptor (Sus scrofa)"
  pIC50: 7.40
- compound-structure-string: "CC[C@H](C)[C@H](NC(=O)CNC(=O)[C@@H](NC(=O)[C@H](CC(C)C)NC(=O)[C@H](NC(C)=O)C1c2ccccc2CCc2ccccc21)[C@@H](C)O)C(=O)N[C@@H](Cc1c[nH]c2ccccc12)C(=O)O"
  experimental-system: "Endothelin-1 receptor (Sus scrofa)"
  pIC50: 6.46
- compound-structure-string: "CC[C@H](C)[C@H](NC(=O)CNC(=O)CNC(=O)[C@H](CC(C)C)NC(=O)[C@H](NC(C)=O)C1c2ccccc2CCc2ccccc21)C(=O)N[C@@H](Cc1c[nH]c2ccccc12)C(=O)O"
  experimental-system: "Endothelin-1 receptor (Sus scrofa)"
  pIC50: 6.82
- compound-structure-string: "CC[C@H](C)[C@H](NC(=O)[C@H](C)NC(=O)[C@H](CC(=O)O)NC(=O)[C@H](CC(C)C)NC(=O)[C@H](NC(C)=O)C1c2ccccc2CCc2ccccc21)C(=O)N[C@@H](Cc1c[nH]c2ccccc12)C(=O)O"
  experimental-system: "Endothelin-1 receptor (Sus scrofa)"
  pIC50: 7.52
- compound-structure-string: "CC[C@H](C)[C@H](NC(=O)CNC(=O)[C@H](CC(=O)O)NC(=O)[C@H](CC(C)C)NC(=O)[C@H](NC(C)=O)C1c2ccccc2CCc2ccccc21)C(=O)N[C@@H](Cc1c[nH]c2ccccc12)C(=O)O"
  experimental-system: "Endothelin-1 receptor (Sus scrofa)"
  pIC50: 7.74
- compound-structure-string: "CC[C@H](C)[C@H](NC(=O)CNC(=O)[C@H](CO)NC(=O)[C@H](CC(C)C)NC(=O)[C@H](NC(C)=O)C1c2ccccc2CCc2ccccc21)C(=O)N[C@@H](Cc1c[nH]c2ccccc12)C(=O)O"
  experimental-system: "Endothelin-1 receptor (Sus scrofa)"
  pIC50: 6.42
- compound-structure-string: "CC[C@H](C)[C@H](NC(=O)CNC(=O)[C@H](CCC(=O)O)NC(=O)[C@H](CC(C)C)NC(=O)[C@H](NC(C)=O)C1c2ccccc2CCc2ccccc21)C(=O)N[C@@H](Cc1c[nH]c2ccccc12)C(=O)O"
  experimental-system: "Endothelin-1 receptor (Sus scrofa)"
  pIC50: 7.32
